// data source = patent US10660877B2

molecules and their reported log10(IC50)
Target: human TLR8 (Homo sapiens (Human))
Sequence (Q9NR97 27-1041): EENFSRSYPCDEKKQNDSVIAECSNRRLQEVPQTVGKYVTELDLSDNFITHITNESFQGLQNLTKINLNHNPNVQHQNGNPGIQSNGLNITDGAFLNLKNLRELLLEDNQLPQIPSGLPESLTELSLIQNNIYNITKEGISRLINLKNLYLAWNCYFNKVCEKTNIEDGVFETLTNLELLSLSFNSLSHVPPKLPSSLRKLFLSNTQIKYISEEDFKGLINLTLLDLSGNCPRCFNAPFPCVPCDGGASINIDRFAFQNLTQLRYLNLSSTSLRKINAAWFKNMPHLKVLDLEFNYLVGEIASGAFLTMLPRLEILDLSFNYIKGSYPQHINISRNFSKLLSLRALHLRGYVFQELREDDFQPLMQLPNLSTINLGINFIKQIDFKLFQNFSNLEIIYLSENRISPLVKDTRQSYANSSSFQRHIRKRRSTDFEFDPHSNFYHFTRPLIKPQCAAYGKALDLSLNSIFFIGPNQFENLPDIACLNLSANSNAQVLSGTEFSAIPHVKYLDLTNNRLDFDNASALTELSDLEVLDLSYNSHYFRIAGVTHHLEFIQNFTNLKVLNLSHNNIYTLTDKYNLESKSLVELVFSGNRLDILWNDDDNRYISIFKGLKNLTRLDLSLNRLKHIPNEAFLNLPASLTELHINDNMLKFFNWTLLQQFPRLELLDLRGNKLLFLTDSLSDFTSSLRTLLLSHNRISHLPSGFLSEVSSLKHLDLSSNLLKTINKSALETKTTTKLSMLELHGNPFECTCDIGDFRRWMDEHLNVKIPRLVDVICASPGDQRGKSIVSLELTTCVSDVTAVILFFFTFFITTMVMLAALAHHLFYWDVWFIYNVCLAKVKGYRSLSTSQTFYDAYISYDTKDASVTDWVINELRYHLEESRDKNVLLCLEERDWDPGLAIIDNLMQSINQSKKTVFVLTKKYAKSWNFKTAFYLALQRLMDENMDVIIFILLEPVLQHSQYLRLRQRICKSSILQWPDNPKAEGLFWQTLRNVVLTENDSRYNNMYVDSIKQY
Test: TLR8 inhibition reporter assay (HEK-Blue cells, SEAP reporter, R848 stimulation);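 also: compounds tested from 0.05 nM to 50 µM, 22 h at 37 °C, SEAP measured with HEK-Blue Detection, inhibition relative to agonist plus DMSO versus a known inhibitor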
Details: TLR8 IC50, HEK-Blue cells overexpressing human TLR8, R848 15.9 μM
Would you kindly interpret these values as log10 of IC50 expressed in nM?

{"molecule": "CNCCC(=O)N1CCC(c2ccc3[nH]c(-c4cc(C)nc(C)c4)c(C(C)C)c3c2)CC1 [Example 183]", "log10(IC50)": 1.29}
{"molecule": "Cc1cc(-c2[nH]c3ccc(C4CCN(C(=O)C5CCNC5)CC4)cc3c2C(C)C)cc(C)n1 (single isomer, unassigned) [Example 181]", "log10(IC50)": 1.33}
{"molecule": "Cc1cc(-c2[nH]c3ccc(C4CCN(CC(=O)NCC(C)(C)C)CC4)cc3c2C(C)C)cc(C)n1 [Example 219]", "log10(IC50)": 1.68}

// moving on: another record for log10(IC50)
Query string: Write down log10(IC50) measured for item Cc1cc(-c2[nH]c3ccc(C4CCN(C(=O)C5CC(=O)N(C)C5)CC4)cc3c2C(C)C)cc(C)n1 (centres unmarked) [Example 100]
Result string: 1.80
